Reported MIC values follow for various molecules
Tested on: Staphylococcus aureus
Assay: Antibacterial activity against methicillin-sensitive Staphylococcus aureus ATCC 29213 by CLSI method
Type: functional

| Molecule | MIC (µg/mL) |
| --- | --- |
| N#Cc1ccc(/C=C/c2nc3ccccc3c(=O)n2-c2cccc(OCc3cn(-c4cccc(Cl)c4)nn3)c2)cc1 | 0.5 |
| C[C@@H](O)[C@H]1C(=O)N2C(C(=O)O)=C(S[C@@H]3CN[C@H](C(=O)N(C)C)C3)[C@H](C)[C@H]12 [MEROPENEM] | 4 |
| N#Cc1ccc(/C=C/c2nc3ccccc3c(=O)n2-c2cccc(OCc3cn(Cc4ccccc4)nn3)c2)cc1 | 1 |
| C[C@H]1COc2c(N3CCN(C)CC3)c(F)cc3c(=O)c(C(=O)O)cn1c23.C[C@H]1COc2c(N3CCN(C)CC3)c(F)cc3c(=O)c(C(=O)O)cn1c23.O [LEVOFLOXACIN] | 0.5 |
